B1: library; numbered along this chain (parent)
chain: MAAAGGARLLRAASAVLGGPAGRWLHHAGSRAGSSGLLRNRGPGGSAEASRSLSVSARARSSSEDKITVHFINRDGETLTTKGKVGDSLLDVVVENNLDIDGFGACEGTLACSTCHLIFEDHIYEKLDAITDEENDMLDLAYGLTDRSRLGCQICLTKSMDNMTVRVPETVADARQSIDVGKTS

Variants of: B1
Assay: scaled log2 fold change in cell abundance, elesclomol vs control (0 = silent mean, 1 = nonsense mean) (scaled log2 ratio); higher = higher viability under elesclomol (loss of FDX1 cuproptosis function);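 also: variant abundance is its share of total variant reads in each endpoint sample, from next-generation sequencing of the integrated ORF PCR-amplified out of genomic DNA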
Settings: with HEK293T FDX1 KO; elesclomol 40 nM; glucose 10 mM; 11 days
Decide by scaled log2 fold change: equal to or exceeding 0.1 means true (1), less means false (0).

Below are worked cases with known answers.
mutantDesignation	className
R31Y	false (0)
F71D	true (1)
F71Q	true (1)
D101I	false (0)

Decide: scaled log2 fold change of `R8V` >= 0.1? true (1)
